Tested on: LOX IMVI melanoma
Assay: NCI-60 one-dose screen, 48 h
Settings: 10 µM unless noted
Compounds without any hit were thinned out: in the full panel of roughly 83,000, 20% have a hit. Activity calls are given as the source filed them. The calls were made as follows: active = growth percent below 10; inactive = the rest.
Classes used: 1.0 (active), 0.0 (inactive)

* O=C(CSc1nnc(-c2cccs2)n1-c1ccccc1)Nc1ccccc1 | 0.0
* O=C1[C@@H]2Cc3c([nH]c4ccccc34)[C@H](c3ccc(Cl)cc3)N2C(=O)CN1C1CCN(Cc2ccccc2)CC1 | 0.0
* Cc1csc(/N=C(N)/N=C(\N)c2cccs2)n1 | 0.0
* O=C1Nc2cc(Cl)ccc2/C1=C\c1ccc(OCc2ccccc2)cc1 | 0.0
* Cc1ccsc1[C@H]1c2[nH]c3ccccc3c2C[C@H]2C(=O)N(CCCCCCC(=O)NO)CC(=O)N12 | 1.0
* Cn1cc(-c2cc3ncnc(Nc4ccc(CC(=O)Nc5nc(C(C)(C)C)cs5)cc4)c3s2)cn1 | 0.0
* CCCCCCNC(=O)Oc1ccc(/C(=C(/C)c2ccc(Cl)cc2)c2ccc(OCCN3CCCCCC3)cc2)cc1 | 0.0
* COc1ccc(C2CC(c3cccc(OCCCCOc4cccc(C5=NN(C(C)=O)C(c6ccc(OC)cc6)C5)c4)c3)=NN2C(C)=O)cc1 (centres undefined) | 0.0
* COc1cc2c3c(cc4c5c(ccc4c3c1OC)OCO5)N(CCN(C)C)C2=O | 1.0
